# assay: Pharmacokinetic assay in male SD rats, single gavage
# Assay type: in vivo
# condition.label: Sprague-Dawley (SD), rat, oral dose 10 mg/kg, plasma
readout.name: AUC(0-t) (ng·h/mL)

Recorded results for 3 molecules are shown here.
{"columns": ["compound", "recorded.result"],
 "data": [
  ["CCS(=O)(=O)Nc1cc(-c2cn(C)c(=O)c3[nH]ccc23)nc2c1ncn2Cc1ccc(C(F)(F)F)cc1", 5100],
  ["Cc1nc2ncc(-c3cn(C)c(=O)c4[nH]ccc34)nc2n1Cc1ccc(Cl)cc1", 2290],
  ["Cc1nc2ncc(-c3cn(C)c(=O)c4[nH]ccc34)nc2n1Cc1ccc(Cl)c(C(F)(F)F)c1", 8500]
]}

(A) Cc1nc2ncc(-c3cn(C)c(=O)c4[nH]ccc34)nc2n1Cc1cccc(C(F)(F)F)c1
(B) Cc1nc2ncc(-c3cn(C)c(=O)c4[nH]ccc34)nc2n1Cc1ccc(C(F)(F)F)cc1
Which is greater in AUC(0-t), the first item A or the second item B ? Select an item and report its label.
B

----------
# assay: Pharmacokinetic assay in male SD rats, single gavage
# Type: in vivo
# condition.label: Sprague-Dawley (SD), rat, oral dose 20 mg/kg, plasma
readout.name: Cmax (ng/mL)
# number only, unit ng/mL dropped from output

// fetch Cmax given entry Cc1nc2ncc(-c3cn(C)c(=O)c4[nH]ccc34)nc2n1Cc1cc(F)cc(C(F)(F)F)c1
1230

----------
# assay: Pharmacokinetic assay in male SD rats, single gavage
# Assay type: in vivo
# condition.label: Sprague-Dawley (SD), rat, oral dose 6.7 mg/kg, plasma
readout.name: half-life (h)
Answer with a number only, understood to be in h.

Hello, please tell me recorded half-life for this one: CCS(=O)(=O)Nc1cc(-c2cn(C)c(=O)c3[nH]ccc23)nc2c1nc(C)n2Cc1ccc(F)cc1F
3.5

----------
# system: BRD4(D2) (Homo sapiens (Human), UniProt O60885)
# assay: Inhibitory activity against BRD4(D2), HTRF assay
# Type: binding
# condition.label: class symbols
readout.name: IC50

{"columns": ["compound", "IC50"],
 "data": [
  ["CCn1cc(-c2cnc3nc(C)n(Cc4ccc(OC)cc4)c3c2)c2cc[nH]c2c1=O", "100 to 300 nM"]
]}

Identify the reported IC50 for the following entry. CCS(=O)(=O)Nc1cc(-c2cn(C)c(=O)c3[nH]ccc23)cc2c1nc(C)n2Cc1ccc(OC)cc1
< 100 nM

Retrieve IC50 measured for Cc1nc2ncc(-c3cn(C)c(=O)c4[nH]ccc34)nc2n1Cc1ccc(C(F)(F)F)c(Cl)c1 and print it.
< 100 nM

Tell me IC50 reported for Cc1nc2ncc(-c3cn(C)c(=O)c4[nH]ccc34)nc2n1Cc1ccccc1
< 100 nM

Determine from records and report IC50 for CCS(=O)(=O)Nc1cc(-c2cn(C)c(=O)c3[nH]ccc23)cc2c1nc(C)n2Cc1ccc(Cl)cc1F
< 100 nM

State, in one line, measured IC50 of COc1ccc(Cn2c(C)nc3ncc(-c4cn(Cc5ccccc5)c(=O)c5[nH]ccc45)cc32)cc1
> 300 nM

Identify measured IC50 associated with CCS(=O)(=O)Nc1cc(-c2cn(C)c(=O)c3[nH]ccc23)nc2c1ncn2Cc1cc(C(F)(F)F)ccc1F
< 100 nM

----------
Entries and their IC50 values follow.
# system: BRD4(D2) (Homo sapiens (Human))
# assay: Inhibitory activity against BRD4(D2), HTRF assay
# Type: binding
# condition.label: class symbols

# annotated cases, reported IC50 shown
{"columns": ["compound", "recorded.result"],
 "data": [
  ["CCS(=O)(=O)Nc1cc(-c2cn(C)c(=O)c3[nH]ccc23)nc2c1ncn2Cc1ccccc1C(F)(F)F [Example 63]", "< 100 nM"],
  ["Cn1cc(-c2cnc3ncnc(Nc4ccc(Cl)cc4)c3c2)c2cc[nH]c2c1=O [Example 37]", "> 300 nM"],
  ["COc1ccc(Cn2c(C)nc3ncc(-c4c[nH]c(=O)c5[nH]c(C)cc45)cc32)cc1 [Example 13]", "100 to 300 nM"]
]}

Answer with the recorded IC50 for the compound listed here: Cc1nc2ncc(-c3cn(C)c(=O)c4[nH]ccc34)nc2n1Cc1ccc(Cl)cc1F [Example 26]
< 100 nM

Assign IC50 to the following record: COC(=O)c1ccc(Cn2c(C)nc3ncc(-c4cn(C)c(=O)c5[nH]ccc45)cc32)cc1 [Example 9]
100 to 300 nM

Kindly indicate its recorded IC50. Item: CCS(=O)(=O)Nc1cc(-c2cn(C)c(=O)c3[nH]ccc23)cc2c1nc(C)n2Cc1cccc(Cl)c1 [Example 53]
< 100 nM

Indicate the recorded IC50 value for this compound: CCS(=O)(=O)Nc1cc(-c2cn(C)c(=O)c3[nH]ccc23)cc2c1nc(C)n2Cc1ccc(Br)cc1 [Example 55]
< 100 nM

For the compound CCS(=O)(=O)Nc1cc(-c2cn(C)c(=O)c3[nH]ccc23)nc2c1nc(C)n2Cc1ccccc1C(F)(F)F [Example 66] , give its measured IC50 value.
< 100 nM

----------
# system: BRD4(D1) (Homo sapiens (Human))
# assay: Inhibitory activity against BRD4(D1), HTRF assay
# Type: binding
# condition.label: class symbols
readout.name: IC50

{"columns": ["compound", "IC50"],
 "data": [
  ["COc1ccc(Cn2c(C)nc3ncc(-c4cn(Cc5nccs5)c(=O)c5[nH]ccc45)cc32)cc1 [Example 14]", "100 to 300 nM"]
]}

Answer briefly: IC50 recorded on BRD4(D1) (Homo sapiens (Human)) for CCS(=O)(=O)Nc1cc(-c2cn(C)c(=O)c3[nH]ccc23)cc2c1nc(C)n2Cc1ccc(C(F)(F)F)c(F)c1 [Example 51]
< 100 nM

Fill in: IC50 on BRD4(D1) (Homo sapiens (Human)), entry Cc1nc2ncc(-c3cn(C)c(=O)c4[nH]ccc34)nc2n1Cc1ccc(C(F)(F)F)c(F)c1 [Example 28]
< 100 nM

Under BRD4(D1) (Homo sapiens (Human)): report IC50 of CCn1cc(-c2cnc3nc(C)n(Cc4ccc(OC)cc4)c3c2)c2cc[nH]c2c1=O [Example 12] .
100 to 300 nM

Send back BRD4(D1) (Homo sapiens (Human)) IC50 of COc1cccc(Cn2c(C)nc3ncc(-c4c[nH]c(=O)c5[nH]c(C)cc45)cc32)c1 [Example 16] only.
100 to 300 nM

Please indicate recorded IC50 of CCS(=O)(=O)Nc1cc(-c2cn(C)c(=O)c3[nH]ccc23)cc2c1nc(C)n2Cc1ccc(C(F)(F)F)cc1 [Example 42] measured with BRD4(D1) (Homo sapiens (Human)).
< 100 nM

Supply IC50 measured with BRD4(D1) (Homo sapiens (Human)) for CCS(=O)(=O)Nc1cc(-c2cn(C)c(=O)c3[nH]ccc23)cc2c1nc(C)n2Cc1ccc(C(F)(F)F)c(Cl)c1 [Example 52] .
< 100 nM

----------
# assay: Pharmacokinetic assay in male SD rats, single gavage
# Assay type: in vivo
# condition.label: Sprague-Dawley (SD), rat, oral dose 5 mg/kg, plasma
readout.name: AUC(0-t) (ng·h/mL)
Write it as a number; the unit ng·h/mL goes unstated.

Fill in AUC(0-t) for record CCS(=O)(=O)Nc1cc(-c2cn(C)c(=O)c3[nH]ccc23)nc2c1ncn2Cc1ccc(F)cc1F
10200

----------
# assay: Pharmacokinetic assay in male SD rats, single gavage
# Type: in vivo
# condition.label: Sprague-Dawley (SD), rat, oral dose 10 mg/kg, plasma
readout.name: Cmax (ng/mL)

{"columns": ["compound", "Cmax / ng/mL"],
 "data": [
  ["CCS(=O)(=O)Nc1cc(-c2cn(C)c(=O)c3[nH]ccc23)nc2c1ncn2Cc1ccc(C(F)(F)F)cc1", 1960],
  ["Cn1cc(-c2cnc3cnn(Cc4ccc(Cl)cc4)c3c2)c2cc[nH]c2c1=O", 1700],
  ["Cc1nc2ncc(-c3cn(C)c(=O)c4[nH]ccc34)nc2n1Cc1ccc(Cl)c(C(F)(F)F)c1", 1000],
  ["Cc1nc2ncc(-c3cn(C)c(=O)c4[nH]ccc34)nc2n1Cc1cccc(C(F)(F)F)c1", 407]
]}

(P) Cc1nc2ncc(-c3cn(C)c(=O)c4[nH]ccc34)nc2n1Cc1ccc(C(F)(F)F)cc1
(Q) Cc1nc2ncc(-c3cn(C)c(=O)c4[nH]ccc34)nc2n1Cc1ccc(Cl)cc1
Which one would you say has the larger Cmax value: P , or Q ? When you have decided, please share the label of that item.
P

----------
# system: BRD4(D1) (Homo sapiens (Human), UniProt O60885)
# assay: Inhibitory activity against BRD4(D1), HTRF assay
# Format: binding
# condition.label: numeric values
pIC50: −log10 of the molar value.
readout.name: pIC50

Use the examples below as a reference point.
{"columns": ["compound", "pIC50"],
 "data": [
  ["CCS(=O)(=O)Nc1cc(-c2cn(C)c(=O)c3[nH]ccc23)nc2c1ncn2Cc1cc(F)cc(F)c1", 8.89],
  ["Cc1nc2ncc(-c3cn(C)c(=O)c4[nH]ccc34)cc2n1Cc1ccc(C(F)(F)F)cc1", 7.84],
  ["Cc1nc2ncc(-c3cn(C)c(=O)c4[nH]ccc34)cc2[nH]1", 7.40],
  ["Cc1nc2ncc(-c3cn(C)c(=O)c4[nH]ccc34)cc2n1Cc1ccc(Cl)cc1", 8.15],
  ["CCS(=O)(=O)Nc1cc(-c2cn(C)c(=O)c3[nH]ccc23)nc2c1ncn2Cc1ccc(C(F)(F)F)cc1", 8.80]
]}

(a) Cc1cc2ncc(-c3cn(C)c(=O)c4[nH]ccc34)cc2n1Cc1c(Cl)cccc1Cl
(b) CCS(=O)(=O)Nc1cc(-c2cn(C)c(=O)c3[nH]ccc23)nc2c1ncn2Cc1ccc(F)cc1F
Which numeric pIC50 is bigger, that of a or that of b ? Which one? Tell me its label.
b
(b: 8.92, a: 8.14)

(I) Cc1nc2ncc(-c3cn(C)c(=O)c4[nH]ccc34)nc2n1C(C)c1ccc(Cl)cc1 (stereo not drawn)
(II) Cn1cc(-c2ccc3ccn(S(=O)(=O)c4ccc(Cl)cc4)c3n2)c2cc[nH]c2c1=O
Hi there! Just curious which has the higher pIC50 between I and II . Provide the label of your selected option as the answer.
I
(I: 8.21, II: 7.98)

(1) Cc1nc2ncc(-c3cn(C)c(=O)c4[nH]ccc34)cc2n1Cc1ccccc1
(2) CSc1ccc(Cn2c(C)nc3ncc(-c4cn(C)c(=O)c5[nH]ccc45)cc32)cc1
Would you kindly point out which of 1 and 2 has the smaller pIC50 figure? Use the label to indicate which entry you chose.
2

Taken from patent US11466034B2.
